Here's a batch of molecules along with measured Ki for Voltage-gated inwardly rectifying potassium channel KCNH2 (Homo sapiens, UniProt Q12809).

Recorded Ki, per entry:
molecule | Ki
CC(C)(CCCN1CC[C@@H]2CCCC[C@H]2C1)S(=O)(=O)c1ccccc1 (racemic) | > 4 µM
CC(C)(CCCN1CCCC(c2cnco2)C1)S(=O)(=O)c1ccccc1 (racemic) | > 8 µM
CC(C)(CCCN1CCCC(C(F)(F)F)C1)S(=O)(=O)c1ccccc1 (racemic) | > 5 µM

--- query ---
So what's the measured Ki for this one? CC(C)(CCCN1CCCC(c2ccccc2)C1)S(=O)(=O)c1ccccc1 (racemic)
> 5 µM
